Tested on: RIVA
Measurement notes: growth inhibition by drug plus 177Lu-lilotomab satetraxetan (1 - RLU/untreated control) (fraction); higher = stronger inhibition
Measurement parameters: 100 nM; time (day): 6; 177Lu-lilotomab satetraxetan 0.5 ug/ml
Measured property: growth inhibition by drug plus 177Lu-lilotomab satetraxetan
Answer with a number only.

// below: answered compounds
[
  {
    "Compound": "CN[C@@H](C)C(=O)N[C@H]1CN(C(=O)CC(C)C)CC[C@H]2CC[C@@H](C(=O)NC(c3ccccc3)c3ccccc3)N2C1=O",
    "Reported value": 0.544
  },
  {
    "Compound": "COc1ccc(C2=N[C@@H](c3ccc(Cl)cc3)[C@@H](c3ccc(Cl)cc3)N2C(=O)N2CCNC(=O)C2)c(OC(C)C)c1 [Nutlin-3]",
    "Reported value": 0.496
  },
  {
    "Compound": "Fc1cc(-c2cccc3ncc(-c4cnn(C5CCNCC5)c4)nc23)cc(F)c1CN1CCOCC1",
    "Reported value": 0.592
  },
  {
    "Compound": "COc1ccc(CNC(=O)Nc2ncc([N+](=O)[O-])s2)cc1",
    "Reported value": 0.47
  }
]

Inquiry: # get_value(readout='growth inhibition by drug plus 177Lu-lilotomab satetraxetan', item= S=C(NCc1ccc2c(c1)OCO2)N1CCN(c2ncnc3c2oc2ccccc23)CC1 [Amuvatinib (MP-470)] )
Reply text: 0.677

Inquiry: # get_value(readout='growth inhibition by drug plus 177Lu-lilotomab satetraxetan', item= O=C(O)CC[C@H]1CC[C@@](c2cc(F)ccc2F)(S(=O)(=O)c2ccc(Cl)cc2)CC1 )
Reply text: 0.556

Inquiry: # get_value(readout='growth inhibition by drug plus 177Lu-lilotomab satetraxetan', item= CCC(=O)N1CCN(c2ccc(-n3c(=O)ccc4cnc5ccc(-c6cnc7ccccc7c6)cc5c43)cc2C(F)(F)F)CC1 [Torin 1] )
Reply text: 0.531

Inquiry: # get_value(readout='growth inhibition by drug plus 177Lu-lilotomab satetraxetan', item= O=C1NC(=O)/C(=C\c2cccc(C(F)(F)F)c2)S1 )
Reply text: 0.45

====

Test system: RIVA
Measurement notes: growth inhibition by drug plus 177Lu-lilotomab satetraxetan (1 - RLU/untreated control) (fraction); higher = stronger inhibition
Measurement parameters: 100 nM; time (day): 3; 177Lu-lilotomab satetraxetan 0.5 ug/ml
Counter-ions that a name gives are not always drawn.
Where growth inhibition by drug plus 177Lu-lilotomab satetraxetan equals or exceeds 0.4, the correct label is criterion met; where it does not, the label is criterion not met.

Solved cases below.
[
  {
    "Compound": "COc1cc2ncnc(Nc3ccc(F)c(Cl)c3)c2cc1NC(=O)/C=C/CN1CCCCC1",
    "Class assignment": "criterion not met"
  },
  {
    "Compound": "O=C(O[C@@H]1Cc2c(O)cc(O)cc2O[C@@H]1c1cc(O)c(O)c(O)c1)c1cc(O)c(O)c(O)c1 [(-)-Epigallocatechin gallate]",
    "Class assignment": "criterion not met"
  },
  {
    "Compound": "CCCC(CCC)C(=O)O [Valproic acid sodium salt (Sodium valproate)]",
    "Class assignment": "criterion met"
  },
  {
    "Compound": "O=c1cc(-c2cccc3c2Sc2ccccc2S3)oc(N2CCOCC2)c1",
    "Class assignment": "criterion not met"
  },
  {
    "Compound": "COC(=O)Nc1nc2cc(C(=O)c3cccs3)ccc2[nH]1 [Nocodazole]",
    "Class assignment": "criterion met"
  },
  {
    "Compound": "CN(C)C[C@@H]1CCn2cc(c3ccccc32)C2=C(C(=O)NC2=O)c2cn(c3ccccc23)CCO1",
    "Class assignment": "criterion met"
  }
]

Inquiry: hey, is growth inhibition by drug plus 177Lu-lilotomab satetraxetan for this one >= 0.4? COc1ccc2c(c1)CCC1C2CCC2(C)C(NCCCCCCN3C(=O)C=CC3=O)CCC12 (stereo not drawn)
Reply text: criterion met

Inquiry: hey, is growth inhibition by drug plus 177Lu-lilotomab satetraxetan for this one >= 0.4? COc1cc(Nc2ncc(F)c(Nc3ccc4c(n3)N(COP(=O)(O)O)C(=O)C(C)(C)O4)n2)cc(OC)c1OC
Reply text: criterion met

====

Test system: U-2932
Measurement notes: growth inhibition by drug plus 177Lu-lilotomab satetraxetan (1 - RLU/untreated control) (fraction); higher = stronger inhibition
Measurement parameters: 10 nM; time (day): 3; 177Lu-lilotomab satetraxetan 1 ug/ml
Measured property: growth inhibition by drug plus 177Lu-lilotomab satetraxetan
Answer with a number only.

// below: answered compounds
[
  {
    "Compound": "COc1ccc(CCN2CCN(CCCc3ccccc3)CC2)cc1OC",
    "Reported value": -0.0743
  },
  {
    "Compound": "Nc1nc(Cl)nc2c1ncn2[C@H]1C[C@H](O)[C@@H](CO)O1",
    "Reported value": 0.0179
  }
]

Inquiry: # get_value(readout='growth inhibition by drug plus 177Lu-lilotomab satetraxetan', item= COc1ccc(COc2cc3oc(=O)c4cc(C(C)O)ccc4c3cc2OC)cc1 (stereo not drawn) )
Reply text: -0.0294

Inquiry: # get_value(readout='growth inhibition by drug plus 177Lu-lilotomab satetraxetan', item= COc1cc2c(NC3CCN(C)CC3)nc(N3CCCN(C)CC3)nc2cc1OCCCN(C)C )
Reply text: -0.0493

====

System: RIVA
Measurement notes: growth inhibition by drug alone (1 - RLU/untreated control) (fraction); higher = stronger inhibition
Measurement parameters: 100 nM; time (day): 3; 177Lu-lilotomab satetraxetan 0 ug/ml
Where growth inhibition by drug alone equals or exceeds -0.08, the correct label is Yes; where it does not, the label is No.

Solved cases below.
[
  {
    "Molecule": "O=c1cc(-c2cccc3c2Sc2ccccc2S3)oc(N2CCOCC2)c1",
    "Tgt": "RIVA",
    "Class assignment": "No"
  },
  {
    "Molecule": "O=C(/C=C/c1cccnc1)NCCCCC1CCN(C(=O)c2ccccc2)CC1",
    "Tgt": "RIVA",
    "Class assignment": "Yes"
  },
  {
    "Molecule": "CC(C=CC(=O)NO)=CC(C)C(=O)c1ccc(N(C)C)cc1 (stereo unspecified)",
    "Tgt": "RIVA",
    "Class assignment": "Yes"
  }
]

Inquiry: hey, is growth inhibition by drug alone for this one >= -0.08? O=c1cc(N2CCOCC2)oc2c(-c3ccccc3)cccc12
Reply text: Yes

Inquiry: hey, is growth inhibition by drug alone for this one >= -0.08? C[C@@H](O[C@H]1OCCN(Cc2n[nH]c(=O)[nH]2)[C@H]1c1ccc(F)cc1)c1cc(C(F)(F)F)cc(C(F)(F)F)c1 [Aprepitant (MK-0869)]
Reply text: No

Inquiry: hey, is growth inhibition by drug alone for this one >= -0.08? Cc1[nH]c2ccccc2c1CCNCc1ccc(/C=C/C(=O)NO)cc1
Reply text: Yes

====

Test system: RIVA
Measurement notes: growth inhibition by drug alone (1 - RLU/untreated control) (fraction); higher = stronger inhibition
Measurement parameters: 10 nM; time (day): 6; 177Lu-lilotomab satetraxetan 0 ug/ml
Measured property: growth inhibition by drug alone
Answer with a number only.

Inquiry: # get_value(readout='growth inhibition by drug alone', item= CN1CCN(CCOc2cc(OC3CCOCC3)c3c(Nc4c(Cl)ccc5c4OCO5)ncnc3c2)CC1 [Saracatinib (AZD0530)] )
Reply text: -0.893

Inquiry: # get_value(readout='growth inhibition by drug alone', item= CN(c1ncccc1CNc1nc(Nc2ccc3c(c2)CC(=O)N3)ncc1C(F)(F)F)S(C)(=O)=O )
Reply text: -0.296

Inquiry: # get_value(readout='growth inhibition by drug alone', item= CC(=O)O[C@H]1C(=O)[C@@]2(C)[C@H]([C@H](OC(=O)c3ccccc3)[C@]3(O)C[C@H](OC(=O)[C@H](O)[C@@H](NC(=O)c4ccccc4)c4ccccc4)C(C)=C1C3(C)C)[C@]1(OC(C)=O)CO[C@@H]1C[C@@H]2O [Paclitaxel (Taxol)] )
Reply text: 0.967

====

// values below are reported growth inhibition by drug plus 177Lu-lilotomab satetraxetan
Test system: RIVA
Measurement notes: growth inhibition by drug plus 177Lu-lilotomab satetraxetan (1 - RLU/untreated control) (fraction); higher = stronger inhibition
Measurement parameters: 10 nM; time (day): 5; 177Lu-lilotomab satetraxetan 0.5 ug/ml
Answer with a number only.

[
  {
    "Compound": "CCOc1ccc(Cc2cc([C@@H]3O[C@H](CO)[C@@H](O)[C@H](O)[C@H]3O)ccc2Cl)cc1 [Dapagliflozin]",
    "Reported value": 0.644
  },
  {
    "Compound": "CC1=C(/C=C/C(C)=C/C=C/C(C)=C/C(=O)Nc2ccc(O)cc2)C(C)(C)CCC1 [Fenretinide]",
    "Reported value": 0.583
  },
  {
    "Compound": "O=C(O)c1ccc2cc(-c3ccc(O)c(C45CC6CC(CC(C6)C4)C5)c3)ccc2c1",
    "Reported value": 0.699
  }
]

Next:
Inquiry: Quick check: growth inhibition by drug plus 177Lu-lilotomab satetraxetan on RIVA, item O=C(Nc1ncc([N+](=O)[O-])s1)c1ccc([N+](=O)[O-])c(Cl)c1 ?
Reply text: 0.69

# credit: the supplement of paper PMC6897291
